B1: Adeno-associated virus receptor (AAVR), wild-type, PKD1-5 domains [not stated] / Adeno-associated virus 1 (AAV1) particle, wild-type capsid [adeno-associated virus 1 (AAV1)] (parent complex)
chain 1: MEKRLGVKPNPASWILSGYYWQTSAKWLRSLYLFYTCFCFSVLWLSTDASESRCQQGKTQFGVGLRSGGENHLWLLEGTPSLQSCWAACCQDSACHVFWWLEGMCIQADCSRPQSCRAFRTHSSNSMLVFLKKFQTADDLGFLPEDDVPHLLGLGWNWASWRQSPPRAALRPAVSSSDQQSLIRKLQKRGSPSDVVTPIVTQHSKVNDSNELGGLTTSGSAEVHKAITISSPLTTDLTAELSGGPKNVSVQPEISEGLATTPSTQQVKSSEKTQIAVPQPVAPSYSYATPTPQASFQSTSAPYPVIKELVVSAGESVQITLPKNEVQLNAYVLQEPPKGETYTYDWQLITHPRDYSGEMEGKHSQILKLSKLTPGLYEFKVIVEGQNAHGEGYVNVTVKPEPRKNRPPIAIVSPQFQEISLPTTSTVIDGSQSTDDDKIVQYHWEELKGPLREEKISEDTAILKLSKLVPGNYTFSLTVVDSDGATNSTTANLTVNKAVDYPPVANAGPNQVITLPQNSITLFGNQSTDDHGITSYEWSLSPSSKGKVVEMQGVRTPTLQLSAMQEGDYTYQLTVTDTIGQQATAQVTVIVQPENNKPPQADAGPDKELTLPVDSTTLDGSKSSDDQKIISYLWEKTQGPDGVQLENANSSVATVTGLQVGTYVFTLTVKDERNLQSQSSVNVIVKEEINKPPIAKITGNVVITLPTSTAELDGSKSSDDKGIVSYLWTRDEGSPAAGEVLNHSDHHPILFLSNLVEGTYTFHLKVTDAKGESDTDRTTVEVKPDPRKNNLVEIILDINVSQLTERLKGMFIRQIGVLLGVLDSDIIVQKIQPYTEQSTKMVFFVQNEPPHQIFKGHEVAAMLKSELRKQKADFLIFRALEVNTVTCQLNCSDHGHCDSFTKRCICDPFWMENFIKVQLRDGDSNCEWSVLYVIIATFVIVVALGILSWTVICCCKRQKGKPKRKSKYKILDATDQESLELKPTSRAGIKQKGLLLSSSLMHSESELDSDDAIFTWPDREKGKLLHGQNGSVPNGQTPLKARSPREEIL
chain 2: MAADGYLPDWLEDNLSEGIREWWDLKPGAPKPKANQQKQDDGRGLVLPGYKYLGPFNGLDKGEPVNAADAAALEHDKAYDQQLKAGDNPYLRYNHADAEFQERLQEDTSFGGNLGRAVFQAKKRVLEPLGLVEEGAKTAPGKKRPVEQSPQEPDSSSGIGKTGQQPAKKRLNFGQTGDSESVPDPQPLGEPPATPAAVGPTTMASGGGAPMADNNEGADGVGNASGNWHCDSTWLGDRVITTSTRTWALPTYNNHLYKQISSASTGASNDNHYFGYSTPWGYFDFNRFHCHFSPRDWQRLINNNWGFRPKRLNFKLFNIQVKEVTTNDGVTTIANNLTSTVQVFSDSEYQLPYVLGSAHQGCLPPFPADVFMIPQYGYLTLNNGSQAVGRSSFYCLEYFPSQMLRTGNNFTFSYTFEEVPFHSSYAHSQSLDRLMNPLIDQYLYYLNRTQNQSGSAQNKDLLFSRGSPAGMSVQPKNWLPGPCYRQQRVSKTKTDNNNSNFTWTGASKYNLNGRESIINPGTAMASHKDDEDKFFPMSGVMIFGKESAGASNTALDNVMITDEEEIKATNPVATERFGTVAVNFQSSSTDPATGDVHAMGALPGMVWQDRDVYLQGPIWAKIPHTDGHFHPSPLMGGFGLKNPPPQILIKNTPVPANPPAEFSATKFASFITQYSTGQVSVEIEWELQKENSKRWNPEVQYTSNYAKSANVDFTVDNNGLYTEPRPIGTRYLTRPL

variants of: B1; experiment: SPR (BIAcore); parent: 13.9 nM
The entries below are paired with their reported pKd.
# pKd: negative log10 of molar concentration; output just the value

Consider the reported pKd for these variants:
Alteration	pKd
chain 1 S425A	5.43
chain 1 V427A	4.45

API: the following record is the query input.
According to the records, this variant chain 1 T426A displays pKd of 4.33
